tested on: MS2 coat protein; assay: apparent KD of MS2 coat protein; higher = weaker reporter binding; details: Eterna round: R107; input ligand: tryptophan 2.4 mM
In this scheme, each record receives a class according to its apparent KD of MS2 coat protein; the ranges are low = under 20 nM, middle = from 20 nM up to 50 nM, high = 50 nM and over

Answered cases to consult:
- AUAAUGGGUAUCGGAUUAUCAUGAUAUGAUACCAGAUACUUAGAUAUCCCUUGGCAGCAUGAGGACAUGAGGAUCACCCAUGUAU [#04 Exclusion-TheophyllineA]: middle
- AUACAUGAGGAUCACCCAUGUAUGGAUGAAGGAGCGACCAGAGGGUCAGGUAGGUCGCAUCACAUGAGGAUCACCCAUGUAGAAA [DOUBLE!!! :-D #11]: middle
- AUGCGGUGCGGAAGGAGCGAGUUUGCCUAUUUACAUGAGGAUCACCCAUGUCCUAAUGGGACUCAGGUAGGUCGCCGUUGUCGCA [Same State Arginine B GF 29]: high
- AGCUCGCAUCCUCAAGCGUCAAAGACGCGUCGAGGACCGGUACGGCCGCCACUCGACAAGAGGAUCACCCUUGUCUAAGCGAGCA [TrypAX 4 #SwitchBubble #AlternativeMS2 #MS2Late #CuTurnoff]: high
- UCGCCCAGGUAGGCUUAAUGGGAUAUGGAAGGAGCGCUGAUGCCAGCAGGUAGGUCGCCAACGGACAUGAGGAUCACCCAUGUAC [Same State - Arginine A (Freestyle 4)]: middle
- AUAAGUAAUGUUACGUGUUUAAUUGCAGAUACCAGACUAUACGUUGUCCCUUGGCAGCUGAAUUACAUGAGGAUCACCCAUGUUG [JR_ExcTheophyA_Sub005]: middle
- UGACAUUGCUCAGAUACCAGACAUGAGCAUCAGCCAUGUACCGAGAGUACAUGUUAAAGUGUCCCUUGGCAGCUGAGCAAUGUCU [Mod of Eli's TheoBX5 #AlternateMS2 v4]: high
- CACGGCCAUGAGGAUCACCCAUGGAAUAAUCGAGGACCGGUACGGCCGCCACUCGUGGACCGUGACCUGUACGAAAAGUGCAGGA: low
- UGUAUGUGAUCUGAUACCAGUCCAACUGGUAAAUCAUGAGGAUCACCCAUGGAAAAUUGGGACCCUUGGCAGCAGAUCGCAUACU: high

Query: Place this sequence in its band: CAAAUAGACCACGAUACCAGAACACAAGGAGUAAUAUCAAACAUGAGGAUCACCCAUGUCUUCCCUUGGCAGCGUAGCACGGAGU [theeternabot_exclusion_MS2_Theo_B_23]
Response: low

* * *

test system: MS2 coat protein; experiment: apparent KD of MS2 coat protein; designed switch direction (-1 OFF switch, 1 ON switch): 1; higher = weaker reporter binding; details: input ligand: FMN 200 uM
Please go through the items and note down their apparent KD of MS2 coat protein.
One number for each entry, in nM.

# example entries with known answers
* GUGGUCAAUCAAGGAUAUGGAGCCUUAUUGGCUCCAGAAGGUGGGACAUGAGGAUCACCCAUGUGGCAGUGGUAAAAUGACCAC [Fiskers NG1ss - 37] (Eterna round: R96, puzzle: Same State NG 1) | 35.6
* UUGUAUCGAAAAGGAUAUCAUGGGCAACGGUACUGAGAAGGUUUCGAGCUCGAACGAGCAACAUGAGGAUCACCCAUGUCCGAG [Eternabot solution 50] (Eterna round: R96, puzzle: Same State NG 1) | 337
* GGAGCCAAGGCAGGAUAUUCAUAUUAAAACAUGAGGAUCACCCAUGUAAAGGCCAGAAGGCCGUGGGAGAAGGGCCAUGGCUCG [Xeonanis - 13 mod15] (Eterna round: R96, puzzle: Same State NG 2) | 38.5
* GUAGUACAUGAGGAUCACCCAUGUUUCCUCCAAGAGUUCUUCGAGGAUAUGUCAUGGAAUCCACAAUAGAAGGCGGAGAACCAA [Eternabot solution 39] (Eterna round: R96, puzzle: Same State NG 3) | 403
* GCUACCAUUGAAGCCAACAUGAGGAUCACCCAUGUAUGUUGGCAGGAUAUCGAUUGCUUUGCGAUCGAGAAGGGCUAAGGUAGC [JL SSNG3 1.29] (Eterna round: R96, puzzle: Same State NG 3) | 120

Give me apparent KD of MS2 coat protein for each of these sequences, listed below.
1. UUAUUAUUUACAUGAGGAUCACCCAUGUUUUUAUGUCAGAGAUAGGAUAUAGUAGUCUCGUUUUACUAGAAGGAUCUUUUUAUU [JR_SSNG3_Sub084] (Eterna round: R96, puzzle: Same State NG 3)
2. ACGUGAGGCGCAGGAUAUACAUGAGGAUCACCCGUAGAAGGGCGCACCCAUAACAUGAGGAUCACCCAUGUUGUCCAUGUCCAU [Same State NG 1 S5] (Eterna round: R96, puzzle: Same State NG 1)
3. GCGUUUAACGUAGGAUAUCGAGCUACAUGAGGAUCACCCAUGUCUUUGUAAAGUUUUUUUAAUUACGAGAAGGACGUUUUGCAU [JR_SSNG2_Sub072] (Eterna round: R96, puzzle: Same State NG 2)
4. UGUUGUUAAUUAGGAUAUGGUCACAUGAGGAUCACCCAUGUAAUGUCGAUGCUAUGUGGAUUUGAUCAGAAGGAAUGGCUAACA [SameState NG2 #97] (Eterna round: R96, puzzle: Same State NG 2)
5. GCUACAUGAGGAUCACCCAUGUGUGCGUGGGAGUGAGUGGCUUAGGAUAUCUAUGACUUGAGUUGAGAGAAGGAGGGUUGCUGU [SS-NG3-LRO13] (Eterna round: R96, puzzle: Same State NG 3)
6. CCGCCGGGAACCCGGCGGAAACAUGAGGAUCACCCAUGUACACAGGAUAUCGUGACAUUAACAAACGAGAAGGGUGGCCGAGAC [Atre] (Eterna round: R96, puzzle: Same State NG 3)

Response:
13.4
226
18.7
105
70.9
345

Provide reported apparent KD of MS2 coat protein for each item, in the same order as listed.
1. UGGUACAUGGGAGGAUAUCUCAUGGAGACAUGAGGAUCACCCAUGUAGAUGGCCGGUAACCGGAGAGAGAAGGCCCAUGUACCU [JL SSNG1 3.67] (Eterna round: R96, puzzle: Same State NG 2)
2. GCUAGAAUUAAAGCCAACAUGAGGAUCACCCAUGUAUGUUGGCAGGAUAUCGUUUGCAAAGCAAACGAGAAGGGCCAAACUAGC [Mat - Same State NG 3 - JL Mod - D2] (Eterna round: R96, puzzle: Same State NG 3)
3. GCUCGACGUGUUGUCUACAUGAGGAUCACCCAUGUAGGUGCGGAGGAUAUCUACGUGUUUUAUGUAGAGAAGGUCGUGUCGAGC [SameState NG3 #88] (Eterna round: R96, puzzle: Same State NG 3)
4. GGAAUAUUUACAGGAUAUGAUUUGUAAAUUCGAUCAGAAGGGUAGAUGUCUUACACGACUUGUUACAUGAGGAUCACCCAUGUU [SameState NG1 #9] (Eterna round: R96, puzzle: Same State NG 1)
5. GCGAGCGUACUUGCUACAUGAGGAUCACCCAUGUUCGUUGGACAGGAUAUGGUACCGUUUCGGUACCAGAAGGGUUCACAUGUA [JL SSNG3 3.77] (Eterna round: R96, puzzle: Same State NG 3)
6. GCUAGUAUAAUUGCUAACAUGAGGAUCACCCAUGUAUGUUGGCAGGAUAUCGUUUGCAAAGCAAACGAGAAGGGCUAAACUAGC [Mat - Same State NG 3 - JL Mod - D14] (Eterna round: R96, puzzle: Same State NG 3)

Response:
[79.6, 43.2, 15.1, 41.6, 171, 36.3]

# GGUAAGAAUUAAGGAUAUCGAGUACAUAUGUUUAACAUGAGGAUCACCCAUGUGGGUUGCGGUAUCGAGAAGGUAAAUUAUAAG [Mat - same State NG 2 - JL mod - D63] (Eterna round: R96, puzzle: Same State NG 2) with MS2 coat protein: apparent KD of MS2 coat protein is 43.3

* * *

Answer each item with its documented apparent KD of K4 kissing-loop reporter.
test system: K4 kissing-loop RNA reporter; test: apparent KD of K4 kissing-loop reporter; higher = weaker reporter binding; settings: Eterna round: R107; input ligand: arginine 13.2 mM;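 further: bound reporter read as fluorescence of individual clusters on recovered sequencing chips by microscopy, with normalized cluster intensities fitted with a binding model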
Give bare numbers, in nM.

Look over these answered cases.
* GUACGCUCUCGAGUGAUGUUCGGUAAUAGUUAGGAUAUCGCUUUUGCGAGAAGGAACUGAAUGAGGAAACUCGUUCUGAGUGUAC [FMN A 18] | 183
* GGCGCAGUGAUGUUGCGGGCCGAGAGUGAUACCAGCCGUAUUUGUGGCCCUUGGCAGCGCAGAACCAGUGAUGUUGGUUACUUGG [Same State Theophylline A GF 22] | 513

Need apparent KD of K4 kissing-loop reporter for each of these sequences.
1. UGAUUUAACUGAAGGAGCGGCAAUUGAUAAGUAAAUAUAGUGAUGUUAUAUAAGAUAGAGAGCCAGGUAGGUCGCAGAGGUAUGA [ExArgB.L]
2. AGUACAAUGGCGGCCGCCACUCAAUGGCAGAUCAAAGAUCUGCAUCACUCAGUGAUGUUGAGUGAGAGGACCGGGCCUUUGUACA [Omei KL Tryp B SS B v7]
3. ACGGGUCGACGAAGGAGCGCCGUGCAGUGAUGUUGCAGUUAGAUCCAGUGAUGUUUGGGCCGGCAGGUAGGUCGCGUCGACUCAU [Exclusion Arginine B GF 21]
4. UUAGUCUAGAGAGGAUAUCAGUGAUGUUGAUAUCAAGAUCUAAGAUAGAAUUCUAUCUUAGAUCAAUGAGAAGGCUCUAGACAUU [AK1.1 Exc FMN B]

Response:
159
517
225
144

Go through the items and report each one's apparent KD of K4 kissing-loop reporter.
1. UGCGCUAUGUCCUAAAACGUCCUCCGGGAUACCAGUGUCUUUUUAUACCCUUGGCAGCUUGAGUGAUGUUUGAUGCCGUUCUUGU [izzxmullin]
2. AAUUUAUAUUUAUUCUUUAAAUGUUCAGAAGGAGCGUGAAUUAUCACAGGUAGGUCGCUGAGCUAGUGAUGUUAGCUAUAUACUA [JR_ExcArginiA_Sub007]
3. GCUGCCAUGGCAGGAUAUAUAAAUGCUGAGUGAUGUUCUGCAUCAUAUGUCCCUGACCGCGGCGGUGUAGAAGGGCCAUGGCAGC
4. UUGCGUCUCUGAGGAUAUCAGAACAGAGUGAUGUUCUGUCAACGCCCAGUGAUGUUGGAUGCGAUCUGAGAAGGCAGUGGGCGCG [Same State FMN B GF 10]
5. UAACUCUUGCAGUGAUGUUGCAAGUAUGCUCAGGAUAUCAGGAAACUGAGAAGGGAGUUUCCUGAGCUUCUGCAAGAGCUCAGAA [KL-SSFMN-A6]
6. CAAUGAAUAUAAGAUGAUAUCAUAACAGAAGGAGCGAGUGAUAACUCAGGUAGGUCGCUGAAUUUAUCGAGUGAUGUUCGAUAAA [Same State Arginine A GF10]

Response:
1: 225; 2: 95.3; 3: 93; 4: 188; 5: 408; 6: 158

For every item below, please supply its apparent KD of K4 kissing-loop reporter.
1. UGAUAGGACAGAAGGAGCGGUAGUGAUGUUGCCAAAAGGAUAAGGUGUCAAAAGACACCCUGCCAGGUAGGUCGCUGUCCUAUCU
2. UACUAUAGUGAUGUUAUAGAUAAACCAGAUACCAGUGUAACAUAACACCCUUGGCAGCUGAUGAGGGAACAUAUGAAUGCAUAUG [AstrosSSTHe-A#5newdesignED5.11]
3. UGUCAUUGGUCGGCCGCCACUACAAGGUCAAAGACCAAAGAGUGAUGUUCUUAGACGAAAGUCAGUAGGACCGGGACCGAUGACU [TrypBS 8 #SwitchBubble #K4Middle]
4. GGAAAUCUUGCCGAUACCAGAUCGCGCGGCCAUUGCUAGUGAUGUUGGCAAUAAGUACUCAUCCCUUGGCAGCGGUAAGGCAGUG [theeternabot_sameState_KL_Theo_B_23]
5. UUUUUCCCGCAGGAUACCAGCAACCAAACGUCAUGCGAAGUGAUGUUUCGCUUACGGUAGUGCCCUUGGCAGCCUUCGGUAGGGU [thingy]
6. UGCAGUGAUGUUGCGAGUGGCAGAUACGAAGGAGCGUGGUGAGACACAGGUAGGUCGCGUAUCGAAAUUGCUGUCACUAAAAUGC [#8]

Response:
136
166
707
293
161
411

Can you give me apparent KD of K4 kissing-loop reporter for all of these, one by one?
1. AGACUACCACACUGUCAAUAGACAGUGAACUAGGAUAUGCUGAUAAGCAGAAGGAGUGAUGUUCCUUGGUAGUCAAUAAAAUAAU [FmnAX 13 U67]
2. UUUCGGUUCUGAGGAUAUUCGGACAAAUAUAGUGAUGUUGUAUAAGGAGGAGGGUGUUGGCAGUGCGGAGAAGGCAGACCAGGAU [ExFMNB.W]
3. ACACUAUCGUCAUAGACGGUAGUGAAAGCUGAGGAUAUGAGUGAUGUUAGAAGGUAGCAAGACUGUAUCGAAUAGAUACAGUCAA [FmnA 5 #K4BetweenAptamer #OpenEnded]
4. GGAUCCACCAGUGAUGUUGGAGAAAACUCUAAGGAUAUGACGAAAGUCAGAAGGUGGUAGACUGGACAAAGUCCGGUAGGAUCCA [FmnA10 U30+A78]
5. UGAUACCAGACUGAUACCAGCGAGUGAUGUUUGUUGAUCAUAAGCAGUCAAAGACUGCUUUGCCCUUGGCAGCAGUCUGGUAUCU [#11 K4 Theophylline B Exclusion]
6. GCACUCCAUCGGACGUAAGUGAUGUUUACCCGAGGACCGGUACGGCCGCCACUCGACCGUGCAUAACCAAAUCAAAUAGCUUCCG [theeternabot_exclusion_KL_Trp_A_31]

Response:
[270, 557, 111, 201, 565, 127]
